Cited source for all entries: PubChem BioAssay

Assay: yeast growth modulation, basal conditions, primary screen, YJM789 clinical isolate, OD600, 24 h (AID 1089);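 further: growth of clinical yeast isolate S. cerevisiae YJM 789 seeded 1000 cells per well; test concentration not given here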
Settings: S. cerevisiae YJM789 growth, higher = more signal, called active from +8 up or from −8 down
Outcome measure: z-score
Please state the value as a number alone, without comment.

Example results:
# Compound, z-score
measured = [
    ("CC(C)NC(=O)[C@@]1(C)c2ccccc2C(=O)N(C(C)C)[C@H]1c1ccc(CO)cc1", -0.501),
    ("CC1CC/C=C\\[C@H]2OC34C=CCN(C(C)C)C(=O)[C@H]3N(CCCCCO)C(=O)[C@@H]4C2C(=O)O1 (some centres undefined)", -0.104),
    ("O=C(NC1CC1)[C@@H]1c2ccccc2C(=O)N(Cc2ccccc2)[C@H]1c1ccc(CO)cc1", 0.763),
    ("COC(=O)[C@@]1(Cc2ccccc2)[C@H]2c3cc(C(=O)N4CCCC4)n(Cc4ccsc4Br)c3C[C@H]2CN1C(=O)c1ccccc1", 0.333),
    ("Cc1c(NC(=O)/C(C#N)=C/C=C/c2ccc(N(C)C)cc2)c(=O)n(-c2ccccc2)n1C", -0.0755),
]

Could you share which z-score value was measured for O=c1cccc(-c2cccc(Cl)c2)o1 ?
-3.86

###

Assay: basal RPMI8226 viability, no added stimulus, profiling panel, cell-based, calcein-AM fluorescence, 48 h, PK04 Diversity Set (AID 1166);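 further: cells grown under basal conditions without added stimulus; test concentration not given here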
Settings: RPMI8226 myeloma viability, higher = more signal
Each entry below lists one item and its recorded z-score value.
Please state the value as a number alone, without comment.

Example results:
# Molecule, z-score
rows = [
    ("CCOC(=O)C1=CC[C@@H](c2ccc([N+](=O)[O-])cc2)N(S(=O)(=O)c2ccc(C)cc2)[C@H]1c1ccccc1", -0.281),
    ("O=c1cccc(-c2ccc(C(F)(F)F)cc2)o1", -1.02),
    ("NC(=O)NCC#Cc1ccc2c(c1)[C@]1(C(=O)N2)[C@H](C(=O)Nc2nc3ccccc3s2)[C@H]2C(=O)O[C@H](c3ccccc3)[C@H](c3ccccc3)N2[C@@H]1c1ccc(O)cc1", 0.76),
]

From here, focus on the item given below.
Could you share which z-score value was measured for COCCOC(=O)N1C(=O)[C@@]2(c3cc(C#CCC(C(=O)OC)C(=O)OC)ccc31)[C@H](c1ccc(OCCO)cc1)N1[C@H](c3ccccc3)[C@H](c3ccccc3)OC(=O)[C@H]1[C@@H]2C(=O)N1CCN(c2ncccn2)CC1 ?
-1.07

###

Assay: PSAC antagonists in infected red cells, primary screen, cell-based, P. falciparum Indochina, OD700, 1 h (AID 1154)
Conditions: P. falciparum Indochina infected RBC osmotic lysis, higher = more signal, called active from +8 up or from −8 down
Each entry below lists one item and its recorded z-score value.
Please state the value as a number alone, without comment.

Example results:
# Molecule, z-score
data = [
    ("CC(C)N1CC=CC23O[C@@H]4C=CCCOC(=O)C4[C@H]2C(=O)N(CCO)[C@@H]3C1=O (stereo not given in full)", 0.326),
    ("O=C(N1CCCCC1)[C@@]1(Cc2ccccc2)COC(c2ccc(OCCCO)cc2)=N1", 20.9),
]

Could you share which z-score value was measured for CC(CO)N1C(=O)[C@@H]2C3C(=O)OCCC/C=C\[C@H]3OC23C=CCN(Cn2nnc4ccccc42)C(=O)[C@@H]13 (stereo not given in full) ?
1.03

Could you share which z-score value was measured for O=C1NCC(=O)N2[C@@H]1C[C@@H](C(=O)O)[C@H]2c1ccc(O)cc1 ?
2.73

Could you share which z-score value was measured for Cc1ccc(S[C@]2(C(=O)O)CC(=O)N(Cc3ccccc3Cl)[C@@H]2c2ccc(CO)cc2)cc1 ?
2.67

Could you share which z-score value was measured for CC(=O)N1Cc2ccccc2C[C@]2(N=C(c3ccc(OCCCO)cc3)O[C@@H]2c2ccccc2)C1=O ?
26

Could you share which z-score value was measured for COCCOC(=O)N1C(=O)[C@@]2(c3ccccc31)[C@H](c1ccc(OCCO)cc1)N1[C@H](c3ccccc3)[C@H](c3ccccc3)OC(=O)[C@H]1[C@@H]2C(=O)Nc1nc2ccccc2s1 ?
4.55

Could you share which z-score value was measured for C=C(COC)/C(=C/C[C@@H](OC(=O)c1ccncc1)c1ccc(CO)o1)c1cnc2ccccc2c1 ?
4.66

Could you share which z-score value was measured for CC(C)(C)OC(=O)CC[C@]1(C(=O)O)N=C(c2ccc(OCCCO)cc2)O[C@H]1c1ccccc1 ?
11.9

Could you share which z-score value was measured for C=C[C@H](COC(C)=O)NS(=O)(=O)c1ccc(Br)cc1 ?
0.174
